molecular target: T1, recombinant human VEGF165 (human, UniProt P15692-4 27-191); assay: VEGF165/hVEGFR1-Fc competition ELISA
T1 construct: also called hVEGF165; rhVEGF165
T1 sequence (P15692 other isoform, or with tags, fused parts or gaps limits assumed): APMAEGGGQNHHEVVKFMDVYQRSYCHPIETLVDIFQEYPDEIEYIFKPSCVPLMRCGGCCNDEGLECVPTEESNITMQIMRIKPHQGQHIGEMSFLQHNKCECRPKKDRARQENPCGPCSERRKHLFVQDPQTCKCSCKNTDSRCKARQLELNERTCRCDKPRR
recorded-metric: % inhibition
Express your answer as a number followed by its unit.

Request: Which value of % inhibition has been reported for VEGFBII022 (VHH, biparatopic bivalent VHH in one chain; also called VEGFBII23B04-9GS-5B05) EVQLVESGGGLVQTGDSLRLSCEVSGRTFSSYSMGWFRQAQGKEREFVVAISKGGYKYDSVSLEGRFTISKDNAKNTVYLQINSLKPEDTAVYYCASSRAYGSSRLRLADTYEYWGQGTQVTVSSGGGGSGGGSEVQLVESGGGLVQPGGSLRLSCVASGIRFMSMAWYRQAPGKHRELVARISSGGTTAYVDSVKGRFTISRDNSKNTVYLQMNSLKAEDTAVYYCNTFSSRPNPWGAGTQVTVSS in the records?
Response: 89%
